System: MOLT-4
Experiment: Cytotoxicity against human MOLT4 cells assessed as cell growth at 10 uM
Format: functional
Conditions: Homo sapiens, MOLT-4; read-out: Activity
The label is TRUE for growth at 10 µM below 90% and FALSE for growth at 10 µM equal to or exceeding 90%.

Before answering, review these 2 worked examples.
input_smiles=CC(=O)c1ccccc1-c1ccc(-c2ccnc(NC(=O)Nc3cc(N4CCOCC4)cc(C(F)(F)F)c3)n2)cn1 study_target=MOLT-4 category=TRUE
input_smiles=Cc1cc(-c2cccnc2)nc(NC(=O)c2cccc(C(F)(F)F)c2)n1 study_target=MOLT-4 category=FALSE

For this compound, is growth at 10 µM lower than 90%? `CC(=O)Nc1cccc(-c2ccc(-c3ccnc(NC(=O)Nc4cc(C(F)(F)F)cc(C(F)(F)F)c4)n3)cn2)c1.Cl`
TRUE

Strictly below 90%: is that where growth at 10 µM of `O=C(Nc1cc(C(F)(F)F)cc(C(F)(F)F)c1)Nc1nccc(-c2ccc(Nc3ccccc3)nc2)n1` sits?
FALSE

Say whether its growth at 10 µM is strictly beneath 90%. Entry: `FC(F)(F)c1cc(Nc2nccc(-c3ccc(-c4ccccc4)nc3)n2)cc(C(F)(F)F)c1`
FALSE

State whether 90% exceeds growth at 10 µM recorded for `FC(F)(F)c1cc(Nc2nccc(-c3cccnc3)n2)cc(C(F)(F)F)c1` .
FALSE
